measureName: melting point

> print(dat)
                                   compound    measurement
1  CCNC(=O)NC[C@@H]1C[C@H]1c1cccn2nc(C)cc12 (relative stereo)  108 to 110 °C
2  CC(=O)NC[C@@H]1C[C@H]1c1cccc2nn(C)c(F)c12 (relative stereo) [Example 18]  109 to 111 °C
3  Cc1cc2c([C@@H]3C[C@H]3CNC(=O)C3CC3)cccn2n1 (relative stereo) [Example 47]  133 to 135 °C
4    CC(=O)NC[C@H]1C[C@@H]1c1cccc2nn(C)cc12  145 to 147 °C
5  Cc1cc2c([C@H]3C[C@@H]3CNC(=O)OC(C)(C)C)cccn2n1  117 to 118 °C
6  CCC(=O)NC[C@@H]1C[C@H]1c1cccc2nn(C)cc12 (relative stereo) [Example 2]  104 to 106 °C

-- ask Field request: melting point | item: CCCC(=O)NC[C@@H]1C[C@H]1c1cccn2nc(C)cc12 (relative stereo)
-- reply 82 to 84 °C

-- ask Field request: melting point | item: CCC(=O)NC[C@@H]1C[C@H]1c1cccc2nn(C)cc12 [Example 13]
-- reply 78 to 80 °C

-- ask Field request: melting point | item: CCC(=O)NCC1CC1c1c(Br)ccc2nn(C)cc12 (stereo not drawn)
-- reply 119 to 121 °C
